System: Proteus mirabilis A9554
Assay: MIC, two-fold agar dilution method
Format: cell-based
Settings: nutrient agar
ASSAY_READOUT: minimum inhibitory concentration (MIC)
Write no unit; give the number alone.

As a guide, the following entries are already answered.
- MOLECULE: "Cc1c(N)nc(C(CC(N)=O)NCC(N)C(N)=O)nc1C(=O)NC(C(=O)NC(C)C(O)CC(=O)NC(C(=O)NC(OC1OC(C)C(N)C(O)C1O)C(O)c1nc(-c2nc(C(=O)NCCCC(N)CC(=O)NCCCNC(C)c3ccccc3)cs2)cs1)C(C)O)C(OC1OC(CO)C(O)C(O)C1OC1OC(CO)C(O)C(OC(N)=O)C1O)c1c[nH]cn1 (stereo not drawn) [Tallysomycin S14a]"
  TARGET_OF_ASSAY: "Proteus mirabilis A9554"
  VAL: 3.1
- MOLECULE: "Cc1c(N)nc([C@H](CC(N)=O)NC[C@H](N)C(N)=O)nc1C(=O)N[C@H](C(=O)N[C@H](C)[C@@H](O)CC(=O)N[C@H](C(=O)NC(O[C@@H]1O[C@@H](C)[C@@H](N)[C@@H](O)[C@H]1O)C(O)c1nc(-c2nc(C(=O)NCCCCN)cs2)cs1)[C@@H](C)O)[C@@H](O[C@@H]1O[C@@H](CO)[C@@H](O)[C@H](O)[C@@H]1O[C@H]1O[C@H](CO)[C@@H](O)[C@H](OC(N)=O)[C@@H]1O)c1cnc[nH]1 (stereo partly drawn) [Tallysomycin S10b]"
  TARGET_OF_ASSAY: "Proteus mirabilis A9554"
  VAL: 3.1

[in] Recorded minimum inhibitory concentration (MIC) of Cc1c(N)nc(C(CC(N)=O)NCC(N)C(N)=O)nc1C(=O)NC(C(=O)NC(C)C(O)CC(=O)NC(C(=O)NC(OC1OC(C)C(N)C(O)C1O)C(O)c1nc(-c2nc(C(=O)NCCCC(N)CC(=O)NCCC[S+](C)C)cs2)cs1)C(C)O)C(OC1OC(CO)C(O)C(O)C1OC1OC(CO)C(O)C(OC(N)=O)C1O)c1c[nH]cn1 (stereo not drawn) , please.
[out] 0.2

###

Experiment: Subacute toxicity, multiple dose LD50
Format: in vivo, dd mice
Settings: ip, once daily 9 days, 30 days observation; copper-chelated form unless otherwise stated
Reported LD50 multiple dose (qd 1 → 9) values are given for each entry in this list.
Number only, in mg/kg/day; omit the unit.

Worked examples follow.
- COMPOUND: "Cc1c(N)nc(C(CC(N)=O)NCC(N)C(N)=O)nc1C(=O)NC(C(=O)NC(C)C(O)CC(=O)NC(C(=O)NC(OC1OC(C)C(N)C(O)C1O)C(O)c1nc(-c2nc(C(=O)NCCCNCCCCN)cs2)cs1)C(C)O)C(OC1OC(CO)C(O)C(O)C1OC1OC(CO)C(O)C(OC(N)=O)C1O)c1c[nH]cn1 (stereo not drawn) [Tallysomycin B (Cu-free), reference compound]"
  LD50 multiple dose (qd 1 → 9) (mg/kg/day): 6.8
- COMPOUND: "Cc1c(N)nc(C(CC(N)=O)NCC(N)C(N)=O)nc1C(=O)NC(C(=O)NC(C)C(O)CC(=O)NC(C(=O)NC(OC1OC(C)C(N)C(O)C1O)C(O)c1nc(-c2nc(C(=O)NCCNCC(C)O)cs2)cs1)C(C)O)C(OC1OC(CO)C(O)C(O)C1OC1OC(CO)C(O)C(OC(N)=O)C1O)c1c[nH]cn1 (stereo not drawn)"
  LD50 multiple dose (qd 1 → 9) (mg/kg/day): 4.0

Lab note: next compound to report on.
[in] What value of LD50 multiple dose (qd 1 → 9) has been recorded for this entry: Cc1c(N)nc(C(CC(N)=O)NCC(N)C(N)=O)nc1C(=O)NC(C(=O)NC(C)C(O)CC(=O)NC(C(=O)NC(OC1OC(C)C(N)C(O)C1O)C(O)c1nc(-c2nc(C(=O)NCCC[S+](C)C)cs2)cs1)C(C)O)C(OC1OC(CO)C(O)C(O)C1OC1OC(CO)C(O)C(OC(N)=O)C1O)c1cnc[nH]1.Cl.Cl.Cl.[Cl-] (stereo not drawn)
[out] 2.0

###

Assay: Acute toxicity, single dose LD50
Format: in vivo, dd mice
Conditions: ip, 30 days observation, copper-chelated form unless otherwise stated
Checkbox rule: LD50 single dose lower than 30 mg/kg/day = Y; LD50 single dose not lower than 30 mg/kg/day = N.

Use the examples below as a reference point.
- MOLECULE: "Cc1c(N)nc(C(CC(N)=O)NCC(N)C(N)=O)nc1C(=O)NC(C(=O)NC(C)C(O)CC(=O)NC(C(=O)NC(OC1OC(C)C(N)C(O)C1O)C(O)c1nc(-c2nc(C(=O)NCCCC(N)CC(=O)NCCC[S+](C)C)cs2)cs1)C(C)O)C(OC1OC(CO)C(O)C(O)C1OC1OC(CO)C(O)C(OC(N)=O)C1O)c1c[nH]cn1 (stereo not shown)"
  LABEL: "Y"
- MOLECULE: "Cc1c(N)nc([C@H](CC(N)=O)NC[C@H](N)C(N)=O)nc1C(=O)N[C@H](C(=O)N[C@H](C)[C@@H](O)CC(=O)N[C@H](C(=O)NC(O[C@@H]1O[C@@H](C)[C@@H](N)[C@@H](O)[C@H]1O)C(O)c1nc(-c2nc(C(=O)NCCCCN)cs2)cs1)[C@@H](C)O)[C@@H](O[C@@H]1O[C@@H](CO)[C@@H](O)[C@H](O)[C@@H]1O[C@H]1O[C@H](CO)[C@@H](O)[C@H](OC(N)=O)[C@@H]1O)c1cnc[nH]1 (stereo partly shown) [Tallysomycin S10b]"
  LABEL: "Y"
- MOLECULE: "Cc1c(N)nc(C(CC(N)=O)NCC(N)C(N)=O)nc1C(=O)NC(C(=O)NC(C)C(O)CC(=O)NC(C(=O)NC(OC1OC(C)C(N)C(O)C1O)C(O)c1nc(-c2nc(C(=O)NCCCC(N)CC(=O)NCCCCN)cs2)cs1)C(C)O)C(OC1OC(CO)C(O)C(O)C1OC1OC(CO)C(O)C(OC(N)=O)C1O)c1c[nH]cn1 (stereo not shown) [Tallysomycin S10a]"
  LABEL: "Y"
- MOLECULE: "Cc1c(N)nc(C(CC(N)=O)NCC(N)C(N)=O)nc1C(=O)NC(C(=O)NC(C)C(O)CC(=O)NC(C(=O)NC(OC1OC(C)C(N)C(O)C1O)C(O)c1nc(-c2nc(C(=O)NCCCN3CCOCC3)cs2)cs1)C(C)O)C(OC1OC(CO)C(O)C(O)C1OC1OC(CO)C(O)C(OC(N)=O)C1O)c1c[nH]cn1 (stereo not shown) [Tallysomycin S12b]"
  LABEL: "N"

[in] Hello, I'm reviewing records and need to know if LD50 single dose of Cc1c(N)nc(C(CC(N)=O)NCC(N)C(N)=O)nc1C(=O)NC(C(=O)NC(C)C(O)CC(=O)NC(C(=O)NC(OC1OC(C)C(N)C(O)C1O)C(O)c1nc(-c2nc(C(=O)NCCCN3CCCCC3C)cs2)cs1)C(C)O)C(OC1OC(CO)C(O)C(O)C1OC1OC(CO)C(O)C(OC(N)=O)C1O)c1c[nH]cn1 (stereo not shown) [Tallysomycin S13b] is below 30 mg/kg/day. Could you check?
[out] N

[in] Please check: LD50 single dose for CNCCCNC(=O)CC(N)CCCNC(=O)c1csc(-c2csc(C(O)C(NC(=O)C(NC(=O)CC(O)C(C)NC(=O)C(NC(=O)c3nc(C(CC(N)=O)NCC(N)C(N)=O)nc(N)c3C)C(OC3OC(CO)C(O)C(O)C3OC3OC(CO)C(O)C(OC(N)=O)C3O)c3c[nH]cn3)C(C)O)OC3OC(C)C(N)C(O)C3O)n2)n1 (stereo not shown) [Tallysomycin S11a] , strictly under 30 mg/kg/day or not?
[out] Y

[in] Is the reported LD50 single dose for Cc1c(N)nc(C(CC(N)=O)NCC(N)C(N)=O)nc1C(=O)NC(C(=O)NC(C)C(O)CC(=O)NC(C(=O)NC(OC1OC(C)C(N)C(O)C1O)C(O)c1nc(-c2nc(C(=O)NCC(O)CN)cs2)cs1)C(C)O)C(OC1OC(CO)C(O)C(O)C1OC1OC(CO)C(O)C(OC(N)=O)C1O)c1c[nH]cn1 (stereo not shown) strictly below 30 mg/kg/day?
[out] Y

###

Tested on: Staphylococcus aureus Smith
Experiment: MIC, two-fold agar dilution method
Type: cell-based
Details: nutrient agar
ASSAY_READOUT: minimum inhibitory concentration (MIC)
Please state the value as a number alone, without comment.

[in] Bench note: what minimum inhibitory concentration (MIC) did Cc1c(N)nc([C@H](CC(N)=O)NC[C@H](N)C(N)=O)nc1C(=O)N[C@H](C(=O)N[C@H](C)[C@@H](O)CC(=O)N[C@H](C(=O)NC(O[C@@H]1O[C@@H](C)[C@@H](N)[C@@H](O)[C@H]1O)C(O)c1nc(-c2nc(C(=O)NCCCC(N)CC(=O)NCCCNCCCCN)cs2)cs1)[C@@H](C)O)[C@H](O[C@@H]1O[C@@H](CO)[C@@H](O)[C@H](O)[C@@H]1O[C@H]1O[C@H](CO)[C@@H](O)[C@H](OC(N)=O)[C@@H]1O)c1c[nH]cn1 (stereo partly shown) [Tallysomycin A, reference compound] show?
[out] 0.1
